Experiment: NCI Yeast Anticancer Drug Screen. Data for the wt2 strain (AID 169);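 note: 0% = growth of vehicle-treated yeast cultures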
Conditions: S. cerevisiae wt2 strain growth inhibition; at 33.0 µM; active compounds read high
The panel holds about 79,000 compounds, 15% with a hit somewhere; the sample as a whole holds those more often. The source made the active and inactive calls. Cut-off read from the data, not from the text of the source: active = growth inhibition above about 70%; inactive = the rest.
metric: growth inhibition

- Oc1ccc(NCn2c(=S)sc3ccccc32)cc1: 64% (inactive)
- CCC/C(Cl)=N\OC(=O)Nc1ccc(Br)cc1: 98% (active)
- Cc1ccc2[nH]c3c(C)c4cc[n+](C)cc4c(C)c3c2c1: 49% (inactive)
- COc1cc2ccc(/C=C\[N+](=O)[O-])cc2cc1OC: 98% (active)
- CC1(Cl)CC(O)C2(CC1Br)C1(C)OC1C1OC1(Br)C2(C)C (stereo unspecified): 62% (inactive)
- COc1ccc2c(c1)C(=O)c1ccccc1C2: 7% (inactive)
- COP(=O)(OC)/C(=C\C1=CN(C(c2ccccc2)(c2ccccc2)c2ccccc2)CN1)NC=O: 34% (inactive)
- C[C@H](CCC(=O)NN)[C@H]1CC[C@H]2[C@@H]3CC[C@@H]4C[C@H](O)CC[C@]4(C)[C@H]3CC[C@]12C: -1% (inactive)
- CN(C)CCOc1ccc2c(c1)C/C(=C/c1ncc([N+](=O)[O-])n1C)C2=O: -22% (inactive)
- COc1cc(CC2CC(c3ccc4c(c3)OCO4)OC2=O)cc(OC)c1OC (stereo unspecified): -5% (inactive)
- Clc1cccc(C(Nc2nncs2)Nc2nncs2)c1Cl: 19% (inactive)

* * *

Each entry below lists one item and its recorded growth inhibition value.
Test: NCI Yeast Anticancer Drug Screen. Data for the wt2 strain (AID 169);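 note: 0% = growth of vehicle-treated yeast cultures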
Settings: S. cerevisiae wt2 strain growth inhibition; at 11.0 µM; active compounds read high
Compounds without any hit were thinned out: in the full panel of roughly 79,000, 15% have a hit.
metric: growth inhibition (%)

* CC[C@@]1(O)C(=O)OCc2c1cc1n(c2=O)Cc2cc3c(N)cccc3nc2-1 | -8
* COC(=O)C1=C(C)NC(C)=C(C(=O)OC)C1c1cccc(/[N+]([O-])=C/c2ccccc2)c1 | 8
* O=C1C(Nc2ccccc2)=C(Oc2ccccc2)C(=O)c2ccccc21 | 11
* COc1ccc2sc3cccc(NCCN(C)C)c3c(=O)c2c1 | 0
* S=C(N/N=C(/c1ccccc1)c1ccccn1)N1CCCCCC1 | 12
* O=C(OCCN1CCCCCC1)C(c1ccsc1)C1CCCCC1 (stereo not given) | 22
* O=C1CSc2cc([N+](=O)[O-])ccc2N1 | 14
* CCCCCCCCNC(=O)C1=C(C)NC(C)=C(C(=O)NCCCCCCCC)C1 | 0
* CC(=O)Oc1cc(-c2cc(OC(C)=O)c(OC(C)=O)c3ccccc23)c2ccccc2c1OC(C)=O | 8
* Cc1ccc(S(=O)(=O)NC(=O)NC2=NC(C)(C)N(c3ccc(Cl)c(Cl)c3)C(N)=N2)cc1 | -3

* * *

Each entry below lists one item and its recorded growth inhibition value.
Experiment: NCI Yeast Anticancer Drug Screen. Data for the rad18 strain (AID 177)
Conditions: S. cerevisiae rad18 mutant growth inhibition; at 3.7 µM; active compounds read high
About 79,000 compounds went through this panel and 15% of them were active in at least one assay; those are over-represented in the sample as a whole.
metric: growth inhibition (%)

• CC(/C=C/c1ccc(Cl)cc1)=N\NC(=S)NCC(C)C = -4
• CC1CCN(CCC(=O)c2ccc(Cl)cc2)CC1 = 18
• O=[N+]([O-])c1ccc2c(c1)C(N1CCN(CCO)CC1)Cc1ccc(F)cc1S2 (stereo not given) = -5
• Cc1ccc(C2C(Cl)C(=O)N2n2cnc3ccccc3c2=O)cc1 (stereo not given) = 6
• CC(=O)Nc1ccc(/C=C(\C#N)c2ccc(C)cc2)cc1 = -9
• CCNc1nnc(CSc2nc(-c3ccccc3)c(-c3ccccc3)[nH]2)s1 = 16
• CCCS(=O)(=O)Nc1ccc(Nc2c3ccccc3nc3ccccc23)c(OC)c1 = -63
• CC(O)C(O)C(O)C(/C=N\Nc1ccccc1)=N/Nc1ccccc1 (stereo not given) = 9
• COC(=O)c1ccc(CCC2=CC(=O)C(Br)=CC2=O)cc1 = -8
• Nc1ccc2c(c1)C(=O)c1cccc(N)c1C2=O = 39
• COc1ccccc1/C=C1\Sc2scc(-c3cccc([N+](=O)[O-])c3)[n+]2C1=O = 82
• COc1cc(C2c3cc4c(cc3OC(NNc3ccccc3)C2C)OCO4)cc(OC)c1OC (stereo not given) = 56
• FC(F)(F)c1nc2nc(Cl)c(Cl)nc2n1CCCN1CCOCC1 = 6
• COc1cc2c(c(OC)c1OC)-c1c(cc3c(c1OC)OCO3)CC(C)C(C)(O)C2OC(=O)c1ccccc1 (stereo not given) = -37
• CCCCCCCCCCCCCC[N+](C)(CC(=O)[O-])Cc1ccccc1 (stereo not given) = 23
• CCC(=O)c1cccc2ccccc12 = -1
• COc1ccc(N=C2C(=O)Nc3ccc(Br)cc32)cc1 = -36
• O=[n+]1c2ccc(Cl)cc2n([O-])c2ccc(Cl)cc21 = 12
• S=C(N/N=C/c1ccccn1)Nc1ccc(Cl)cc1 = -3
• O=C1c2ccccc2C(=O)c2c(NC3CCCCC3)ccc(Nc3ccc(S(=O)(=O)O)cc3)c21 = -13
• CC(C)/C(Cl)=N\OC(=O)Nc1ccccc1F = 3
• O=C1C(Nc2ccccc2)=C(Oc2ccccc2)C(=O)c2ccccc21 = 4
• CC(=O)OCC(=O)C1(O)CCC2C3CCC4CCCCC4(C)C3CCC21C (stereo not given) = 24
• Oc1c(Br)cc(Br)cc1C1CCCCC1 = 1
• O=C1C2C=CC1C1C(=O)OC(=O)C21 (stereo not given) = -2
• Cc1cc(CO)c(O)c(CNCc2cc(C)cc(CO)c2O)c1 = -6
• O=C([O][Sn]([O]C(=O)c1ccccc1)([c]1ccccc1)[c]1ccccc1)c1ccccc1 = -4
• O=C(NCCCCNCCCNC(=O)c1cc(-c2ccccc2)nc2ccccc12)c1cc(-c2ccccc2)nc2ccccc12 = -1
• O=C(NCCCCCCCN1CCCCCCC1)C(C1CCCCC1)C1CCCCC1 = 64
• S=C(Nc1ccc(Cl)cc1)SC1CCCCC1 = -7
• CC(=O)OCCOCNC(=S)N/N=C(\C)c1cnccn1 = -5
• CCOP(=O)(OCC)C(Cc1ccccc1)N=C(c1ccccc1)c1ccccc1 (stereo not given) = 4
• CCCCCCCCCCCC(=O)N(C)C = -4
• O=C1Nc2ccc(Cl)c(I)c2C1=O = 30
• Cc1ccc(-n2cc(-c3ccc(Cl)cc3)c(C#N)c2N)cc1 = 1
• O=[N+]([O-])c1ccc([N+]2=NC(c3ccccc3)=NN(c3ccccc3)C2)cc1 = 4
• COc1ccc(O)c(/C=N\Nc2ccccc2)c1 = -8
• CN(C)c1ccc(Sc2ccc3nc(N)nc(N)c3c2)cc1 = -17
• COC(=O)C1=C(C)NC(C)=C(C(=O)OCCCN2CCC(c3ccccc3)(c3ccccc3)CC2)C1c1cccc([N+](=O)[O-])c1 (stereo not given) = 9
• O=[N+]([O-])c1cccc([N+](=O)[O-])c1S(=O)(=O)c1ccccc1 = 30
• CCN(CC)CC[n+]1ccc2c(C)c3[nH]c4ccc(O)cc4c3c(C)c2c1 = -2
• Nc1nc(-c2cccnc2)cc(-c2cc(-c3cccnc3)nc(N)n2)n1 = -4
• Oc1ccc2ccccc2c1C(c1ccc(Cl)cc1)c1c(O)ccc2ccccc12 = -8
• C=C(CN(C)C)C(=O)c1cc(C)ccc1C = 37
• COC1=CC(=O)C(C2(OC(C)C)OC(=O)C(Cl)=C2Cl)=CC1=O (stereo not given) = 49

* * *

Assay: NCI Yeast Anticancer Drug Screen. Data for the CLN2oe strain (AID 163);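 note: 0% = growth of vehicle-only control cultures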
Settings: S. cerevisiae CLN2oe strain, at 3.7 µM, active compounds read high
This is part of a sample that, as a whole, favours compounds with a hit. Of some 79,000 tested, about 15% had one in any assay. The source made the active and inactive calls. Cut-off read from the data, not from the text of the source: active = growth inhibition above about 70%; inactive = the rest.
Each entry below lists one item and its recorded growth inhibition value.
metric: growth inhibition

• C/C(=N\NC(=S)N1CCCCC1)c1cccc(C)n1 = 94% (active)
• O=C(O)C1OC1(c1cccc(Cl)c1)c1ccccc1Cl (stereo unspecified) = 16% (inactive)
• CCc1ncnc2cc(OCC3CO3)c(OC)cc12 (stereo unspecified) = 15% (inactive)
• CC1C(NNc2ccccc2)Oc2cc3c(cc2C1c1ccccc1O)OCO3 (stereo unspecified) = 98% (active)
• CC[C@@]1(O)C(=O)OCc2c1cc1n(c2=O)Cc2cc3c(CN(C)C)c(O)ccc3nc2-1 = -4% (inactive)
• CCCCCCCCCC/C=C\C(=O)O = 25% (inactive)
• O=C1C=CC(=O)N1c1ccc2c(c1)Cc1cc(NC(=O)C(F)(F)F)ccc1-2 = 11% (inactive)
• O=C1c2ccccc2C(=O)c2c(NC3CCCCC3)ccc(Nc3ccc(S(=O)(=O)O)cc3)c21 = 4% (inactive)
• CCN(CC)C(C)(C)C(=O)/C=C/c1ccccc1 = -12% (inactive)
• CCCS(=O)(=O)Nc1ccc(Nc2c3ccccc3nc3ccccc23)c(OC)c1 = -14% (inactive)
• CN1Cc2ccccc2/C=C\c2ccccc21 = 2% (inactive)
